# reported MBC; entries follow
- Tested on: Staphylococcus aureus
- test: Bactericidal activity against methicillin-resistant Staphylococcus aureus measured after 24 hrs by CLSI based broth microdilution method
- Format: functional

{"smilesText": "C=CCCCCCCCCCCCc1cc(O)cc(O)c1", "MBC (µg/mL)": 4}
{"smilesText": "CCCCCCCCCCCCCc1cc(O)cc(O)c1C(=O)O", "MBC (µg/mL)": 4}
{"smilesText": "C=CCCCCCCCCCCCc1cc(O)cc(O)c1C(=O)O", "MBC (µg/mL)": 4}
{"smilesText": "CCCCCCCCCCCCc1cc(O)cc(O)c1", "MBC (µg/mL)": 8}
{"smilesText": "CCCCCCCCCCCCCc1cc(O)cc(O)c1", "MBC (µg/mL)": 4}
{"smilesText": "CCCCCCCCCCCc1cc(O)cc(O)c1C(=O)O", "MBC (µg/mL)": 8}
{"smilesText": "CCCCCCCCCCCCCCc1cc(O)cc(O)c1C(=O)O", "MBC (µg/mL)": 4}
{"smilesText": "CCCCCCCCCCCCc1cc(O)cc(O)c1C(=O)O", "MBC (µg/mL)": 8}
